# melting point annotations
Report the value in °C with no unit label.

INSERT INTO results (smiles_representation, observed_result) VALUES
  ('Cc1ccc(O)c(Br)c1', 16);

Next compound, melting point to be filled in.
Query block: Name the reported melting point value associated with the compound `C=CC(=O)OCCCCCCCCCCCOc1ccc(-c2nc(-c3ccccc3)nc(-c3ccc(OCCCCCCCCCCCOC(=O)C=C)cc3O)n2)c(O)c1`
Result block: 93.3

----------
melting point for assorted molecules

Please review the following examples before continuing.
INSERT INTO results (molecule, observed_result) VALUES
  ('C[C@H](CCN(CCCCNC(=O)[C@@H](NC(=O)CCCCCCNC(=NC(=O)OCc1ccccc1)NC(=O)OCc1ccccc1)O[C@@H](C)c1ccc2ccccc2c1)C(=O)OCc1ccccc1)NC(=O)OCc1ccccc1', '58 °C'),
  ('CCCCCCCCCCCCS(=O)(=O)c1cc2c(cc1S(=O)(=O)CCCCCCCCCCCC)C(=O)c1c(c(O)c3cc(S(=O)(=O)CCCCCCCCCCCC)c(S(=O)(=O)CCCCCCCCCCCC)cc3c1O)C2=O', '180 to 183 °C'),
  ('CCCCCCCCCCCCS(=O)(=O)Nc1cc(C(=O)Nc2ccc(Cl)c(Cl)c2)ccc1OC', '151 to 152 °C');

Query block: Field request: melting point | item: `CC[C@H](C)CNC(=O)[C@@H](C[C@H](O)[C@H](CC1CCCCC1)NC(=O)[C@H](Cc1cscn1)NC(=O)[C@@H](CC(=O)N1CCOCC1)Cc1cccc2ccccc12)C(C)(C)O`
Result block: 102 to 105 °C

Query block: Queued: O=C(NCC(O)CO)c1c(I)c(C(=O)NCC(O)CO)c(I)c(N2C(=O)COCC2CO)c1I (stereo unspecified)
Result block: 227 to 230 °C

Query block: Same lookup for `Cn1nc(COC(=O)CCC(=O)OCc2nc(NCCCOc3cccc(CN4CCCCC4)c3)n(C)n2)nc1NCCCOc1cccc(CN2CCCCC2)c1` , please.
Result block: 80 to 81.5 °C

Query block: Same thing, different molecule: `[C-]#[N+]CC(=O)N(c1ccccc1)C(C)C`
Result block: 80 to 82 °C

Query block: Now this one: CCCCCCCCCCCCc1ccc(N=Nc2ccc(C(N)CCNC(=O)CCN(CCC(=O)NCCN(C)c3ccc(N=Nc4ccc(CCCCCCCCCCCC)cc4[N+](=O)[O-])cc3)c3ccc(N=Nc4ccc(CCCCCCCCCCCC)cc4[N+](=O)[O-])cc3)cc2)c([N+](=O)[O-])c1 (stereo unspecified)
Result block: 127 to 129 °C

Query block: Now consider `CCN(C(=O)OC(C)(C)C)C(=NC(=O)OC(C)(C)C)N1CCN(C(=O)[C@@H]2CCCN2S(=O)(=O)c2ccc(Cl)c(COc3cccc4ccc(C)nc34)c2Cl)CC1` and answer again.
Result block: 95 °C

Query block: Also need COc1cc(OC)c(C=CC(c2ccc(OC)c(CC(=O)O)c2)(S(N)(=O)=O)S(=O)(=O)C(C=Cc2c(OC)cc(OC)cc2OC)(c2ccc(OC)c(CC(=O)O)c2)S(N)(=O)=O)c(OC)c1 (stereo unspecified) , thanks.
Result block: 180 to 184 °C

Query block: Thanks! And `CCC(COC(=O)CCc1cc(C(C)(C)C)c(O)c(C(C)(C)C)c1)(COC(=O)CCc1cc(C(C)(C)C)c(O)c(C(C)(C)C)c1)COC(=O)CCc1cc(C(C)(C)C)c(O)c(C(C)(C)C)c1` ?
Result block: 66 to 79 °C
